- Test system: P. falciparum 3D7 growth, pLDH absorbance
- method-notes: blood-stage malaria parasite growth potency – strain 3D7, dose response (AID 2305)
Listed next: entries and their corresponding IC50.
assay-endpoint: IC50 (nM)

>>> reported_result("CCN(Cc1ccccc1)CC(O)c1ccc(Cl)c(Cl)c1 (stereo not given)")
180
>>> reported_result("COC(=O)c1cccc(CNCc2ccc(-c3cccc(-c4nc5ccccc5[nH]4)c3)cc2)c1")
260
>>> reported_result("CC(C)c1ccc(CN(C)CCCCNC(=O)c2ccc(NC(=O)c3ccc(Cl)cc3)cc2)cc1")
990
>>> reported_result("Cc1nc2ccc3ccc(CNc4ccc(C(=O)N[C@@H](CCC(=O)O)C(=O)O)cc4)cc3c2c(=O)[nH]1")
180
>>> reported_result("CCc1ccc(C2CCN(CCCCNC(=O)c3ccc(NC(=O)c4ccc(Cl)cc4)cc3)CC2)c(OCC(=O)OC)c1")
1030
